Value source: ChEMBL document CHEMBL5131463

# System: SARS-CoV-2
# ASSAY_PROTOCOL: Antiviral activity against SARS-Cov-2 infected in human Calu-3 cells assessed as inhibition of viral replication pretreated with compound for 1 hr followed by viral infection for 2 hrs measured after 24 hrs post infection by qRt-PCR analysis
# Assay type: functional, organism-based
# MEASUREMENT_SETUP: Severe acute respiratory syndrome coronavirus 2, Calu-3
MEASURED_ATTRIBUTE: EC50 (µM)
Please give a number only; it is taken to be in µM.

COMPOUND	EXPERIMENTAL_SYSTEM	UNITS_TEXT	EC50
C=C1CC[C@H]2[C@@](C)(CCC[C@]2(C)C(=O)O)[C@@H]1C/C=C(\C)[C@@H]1CCc2c(O)c(CC3C(=O)C(C(C)=O)=C(O)C(C)(C)C3O)c(O)c(C(=O)CCC)c2O1 (some centres not stated)	SARS-CoV-2	µM	20.2

Attention now shifts to the item below.
Just so you know, measured EC50 for C=C1CC[C@H]2[C@@](C)(CCC[C@]2(C)C(=O)O)[C@@H]1C/C=C(\C)[C@H]1CCc2c(O)c(CC3C(=O)C(C(C)=O)=C(O)C(C)(C)C3O)c(O)c(C(=O)CCC)c2O1 (some centres not stated) came out at 30

* * *

# ASSAY_PROTOCOL: Cytotoxicity against human Calu-3 cells in presence of wallichins D by CCK-8 assay
# Format: toxicity, cell-based
MEASURED_ATTRIBUTE: CC50 (µM)
Please give a number only; it is taken to be in µM.

Just so you know, measured CC50 for C=C1CC[C@H]2[C@@](C)(CCC[C@]2(C)C(=O)O)[C@@H]1C/C=C(\C)[C@@H]1CCc2c(O)c(CC3C(=O)C(C(C)=O)=C(O)C(C)(C)C3O)c(O)c(C(=O)CCC)c2O1 (stereo partly specified) came out at 72.4

* * *

# ASSAY_PROTOCOL: Cytotoxicity against African green monkey Vero E6 cells in presence of wallichins D by CCK-8 assay
# Type: toxicity, cell-based, Vero C1008
# MEASUREMENT_SETUP: chlorocebus sabaeus
MEASURED_ATTRIBUTE: CC50

Just so you know, measured CC50 for C=C1CC[C@H]2[C@@](C)(CCC[C@]2(C)C(=O)O)[C@@H]1C/C=C(\C)[C@@H]1CCc2c(O)c(CC3C(=O)C(C(C)=O)=C(O)C(C)(C)C3O)c(O)c(C(=O)CCC)c2O1 (stereo partly specified) came out at > 140 µM

* * *

Here the recorded CC50 is given for each entry.
# ASSAY_PROTOCOL: Cytotoxicity against human Calu-3 cells by CCK-8 assay
# Format: toxicity, cell-based
Please give a number only; it is taken to be in µM.

COMPOUND	DATA_VALUE
C=C1CC[C@H]2[C@@](C)(CCC[C@]2(C)C(=O)O)[C@@H]1C/C=C(\C)[C@H]1CCc2c(O)c(CC3C(=O)C(C(C)=O)=C(O)C(C)(C)C3O)c(O)c(C(=O)CCC)c2O1 (some centres not stated)	64.3

Attention now shifts to the item below.
Just so you know, measured CC50 for C=C1CC[C@H]2[C@@](C)(CCC[C@]2(C)C(=O)O)[C@@H]1C/C=C(\C)[C@@H]1CCc2c(O)c(CC3C(=O)C(C(C)=O)=C(O)C(C)(C)C3O)c(O)c(C(=O)CCC)c2O1 (some centres not stated) came out at 98.6

* * *

Here the recorded Kd is given for each entry.
# EXPERIMENTAL_SYSTEM: UniProt:P0DTC2
# ASSAY_PROTOCOL: Binding affinity to SARS-CoV-2 Spike glycoprotein receptor-binding domain at 1.875 to 50 uM by SPR assay

COMPOUND	EXPERIMENTAL_SYSTEM	Kd
C=C1CC[C@H]2[C@@](C)(CCC[C@]2(C)C(=O)O)[C@@H]1C/C=C(\C)[C@H]1CCc2c(O)c(CC3C(=O)C(C(C)=O)=C(O)C(C)(C)C3O)c(O)c(C(=O)CCC)c2O1 (some centres not stated)	UniProt:P0DTC2	67.9 µM

Just so you know, measured Kd for C=C1CC[C@H]2[C@@](C)(CCC[C@]2(C)C(=O)O)[C@@H]1C/C=C(\C)[C@@H]1CCc2c(O)c(CC3C(=O)C(C(C)=O)=C(O)C(C)(C)C3O)c(O)c(C(=O)CCC)c2O1 (some centres not stated) came out at 91.7 µM

* * *

# ASSAY_PROTOCOL: Selectivity index, ratio of CC50 for African green monkey Vero cells in presence of […] to EC50 for SARS-Cov-2 infected in african green monkey Vero E6 cells assessed as inhibition of viral replication in presence of wallichins C
# Format: toxicity, Vero C1008
# MEASUREMENT_SETUP: read-out: Selectivity Index
MEASURED_ATTRIBUTE: selectivity ratio

Just so you know, measured selectivity ratio for C=C1CC[C@H]2[C@@](C)(CCC[C@]2(C)C(=O)O)[C@@H]1C/C=C(\C)[C@H]1CCc2c(O)c(CC3C(=O)C(C(C)=O)=C(O)C(C)(C)C3O)c(O)c(C(=O)CCC)c2O1 (stereo partly specified) came out at > 27

* * *

Here the recorded pEC50 is given for each entry.
# Test system: SARS-CoV-2
# ASSAY_PROTOCOL: Antiviral activity against SARS-Cov-2 infected in african green monkey Vero E6 cells assessed as inhibition of viral replication pretreated with compound for 1 hr followed by viral infection for 2 hrs measured after 24 hrs post infection by qRt-PCR analysis
# Type: functional, organism-based
# MEASUREMENT_SETUP: Severe acute respiratory syndrome coronavirus 2, Vero C1008
Please treat pEC50 as minus the base-10 logarithm of the molar concentration.

COMPOUND	MEASURED_ATTRIBUTE	DATA_VALUE
C=C1CC[C@H]2[C@@](C)(CCC[C@]2(C)C(=O)O)[C@@H]1C/C=C(\C)[C@@H]1CCc2c(O)c(CC3C(=O)C(C(C)=O)=C(O)C(C)(C)C3O)c(O)c(C(=O)CCC)c2O1 (some centres not stated)	pEC50	5.35

Attention now shifts to the item below.
Just so you know, measured pEC50 for C=C1CC[C@H]2[C@@](C)(CCC[C@]2(C)C(=O)O)[C@@H]1C/C=C(\C)[C@H]1CCc2c(O)c(CC3C(=O)C(C(C)=O)=C(O)C(C)(C)C3O)c(O)c(C(=O)CCC)c2O1 (some centres not stated) came out at 4.92

* * *

# EXPERIMENTAL_SYSTEM: Replicase polyprotein 1ab (Severe acute respiratory syndrome coronavirus 2)
# ASSAY_PROTOCOL: Inhibition of SARS-CoV-2 3CL protease using MCA-AVLQSGFR-Lys(Dnp)-Lys-NH2 as flurogenic substrate pre-incubated with compound for 10 mins followed by substrate addition measured after 10 mins in presence of wallichins D by FRET assay
MEASURED_ATTRIBUTE: pIC50
Please treat pIC50 as minus the base-10 logarithm of the molar concentration.

Just so you know, measured pIC50 for C=C1CC[C@H]2[C@@](C)(CCC[C@]2(C)C(=O)O)[C@@H]1C/C=C(\C)[C@@H]1CCc2c(O)c(CC3C(=O)C(C(C)=O)=C(O)C(C)(C)C3O)c(O)c(C(=O)CCC)c2O1 (stereo partly specified) came out at 5.25

* * *

# ASSAY_PROTOCOL: Cytotoxicity against African green monkey Vero E6 cells by CCK-8 assay
# Format: toxicity, cell-based, Vero C1008
# MEASUREMENT_SETUP: chlorocebus sabaeus
Here the recorded CC50 is given for each entry.

COMPOUND	CC50
C=C1CC[C@H]2[C@@](C)(CCC[C@]2(C)C(=O)O)[C@@H]1C/C=C(\C)[C@H]1CCc2c(O)c(CC3C(=O)C(C(C)=O)=C(O)C(C)(C)C3O)c(O)c(C(=O)CCC)c2O1 (some centres not stated)	> 140 µM

Attention now shifts to the item below.
Just so you know, measured CC50 for C=C1CC[C@H]2[C@@](C)(CCC[C@]2(C)C(=O)O)[C@@H]1C/C=C(\C)[C@@H]1CCc2c(O)c(CC3C(=O)C(C(C)=O)=C(O)C(C)(C)C3O)c(O)c(C(=O)CCC)c2O1 (some centres not stated) came out at > 140 µM

* * *

# EXPERIMENTAL_SYSTEM: Replicase polyprotein 1ab (Severe acute respiratory syndrome coronavirus 2)
# ASSAY_PROTOCOL: Binding affinity to SARS-CoV-2 3CL protease at 1.875 to 50 uM in presence of wallichins C by SPR assay
MEASURED_ATTRIBUTE: Kd (µM)
Please give a number only; it is taken to be in µM.

Just so you know, measured Kd for C=C1CC[C@H]2[C@@](C)(CCC[C@]2(C)C(=O)O)[C@@H]1C/C=C(\C)[C@H]1CCc2c(O)c(CC3C(=O)C(C(C)=O)=C(O)C(C)(C)C3O)c(O)c(C(=O)CCC)c2O1 (stereo partly specified) came out at 12

* * *

# ASSAY_PROTOCOL: Cytotoxicity against African green monkey Vero E6 cells in presence of wallichins C by CCK-8 assay
# Format: toxicity, cell-based, Vero C1008
# MEASUREMENT_SETUP: chlorocebus sabaeus
MEASURED_ATTRIBUTE: CC50

Just so you know, measured CC50 for C=C1CC[C@H]2[C@@](C)(CCC[C@]2(C)C(=O)O)[C@@H]1C/C=C(\C)[C@H]1CCc2c(O)c(CC3C(=O)C(C(C)=O)=C(O)C(C)(C)C3O)c(O)c(C(=O)CCC)c2O1 (stereo partly specified) came out at > 140 µM
